Biological target: recombinant human ALX receptor (Homo sapiens)
Sequence (P25090 1-351): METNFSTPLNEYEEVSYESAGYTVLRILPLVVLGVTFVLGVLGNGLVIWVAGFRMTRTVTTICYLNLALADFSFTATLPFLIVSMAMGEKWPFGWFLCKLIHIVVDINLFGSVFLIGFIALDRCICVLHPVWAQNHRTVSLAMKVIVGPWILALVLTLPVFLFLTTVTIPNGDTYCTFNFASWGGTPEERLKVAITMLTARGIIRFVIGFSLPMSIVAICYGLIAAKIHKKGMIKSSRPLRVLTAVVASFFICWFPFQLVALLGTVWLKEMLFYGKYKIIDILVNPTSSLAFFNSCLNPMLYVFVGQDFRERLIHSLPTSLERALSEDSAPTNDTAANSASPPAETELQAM
Assay: Intracellular calcium measurements (FLIPR), ALX receptor agonistic activity
Conditions: HEK293-hALXR-Gα16 cells, Fluo-4 calcium signal, normalized to WKYMVm 10 nM
Method: The ALX receptor agonistic activity of the compounds of formula (I) is determined in accordance with the following experimental method. Intracellular Calcium Measurements: Cells expressing recombinant human ALX receptor and the G-protein Gα16 (HEK293-hALXR-Gα16) were grown to 80% confluency in Growing Medium (GM). […] Changes in fluorescence were monitored before and after the addition of test compounds at lex=488 nm and lem=540 nm. […]

| compound | target-under-test | EC50 (nM) |
| --- | --- | --- |
| COc1ccc(CC(NC(=O)N[C@H]2CC[C@H](O)CC2)c2nc3ccc(F)cc3[nH]2)c(F)c1 (single isomer, unassigned; ent-1) [Example 260] | recombinant human ALX receptor (Homo sapiens) | 0.4 |
| O=C(NC(Cc1ccc(C(F)(F)F)cc1F)c1nc2ccccc2[nH]1)N[C@H]1CC[C@H](O)CC1 (single isomer, unassigned; ent-1) [Example 399] | recombinant human ALX receptor (Homo sapiens) | 1700 |
| COc1ccc(CC(NC(=O)Nc2ccnn2-c2ccccn2)c2nc3ccccc3[nH]2)cc1 (stereo not shown) | recombinant human ALX receptor (Homo sapiens) | 56 |
| COc1ccc(C[C@@H](NC(=O)NC(C)c2ccc(OC(F)(F)F)cc2)c2nc3ccccc3[nH]2)cc1 (stereo partly shown) | recombinant human ALX receptor (Homo sapiens) | 1170 |
| CCc1ccc(CC(NC(=O)N[C@H]2CC[C@H](O)CC2)c2nc3cc(F)ccc3[nH]2)cc1 (single isomer, unassigned; ent-1) [Example 368] | recombinant human ALX receptor (Homo sapiens) | 1.8 |
| CC(F)(F)c1ccc(CC(NC(=O)N[C@H]2CC[C@H](O)CC2)c2nc3ccccc3[nH]2)cc1 (single isomer, unassigned; ent-1) [Example 394] | recombinant human ALX receptor (Homo sapiens) | 4.7 |
| COc1ccc(C[C@@H](NC(=O)NCCc2ccc(OC)cn2)c2nc3ccccc3[nH]2)cc1 | recombinant human ALX receptor (Homo sapiens) | 227 |
| COc1cc(F)c(CC(NC(=O)NC23CCC(O)(CC2)CC3)c2nc3ccc(F)cc3[nH]2)c(F)c1 (single isomer, unassigned; ent-2) [Example 373] | recombinant human ALX receptor (Homo sapiens) | 107 |
| COc1ccc(C[C@@H](NC(=O)NCC2(c3ccccc3)CCCCC2)c2nc3ccccc3[nH]2)cc1 | recombinant human ALX receptor (Homo sapiens) | 51 |
| COc1ccc(C[C@@H](NC(=O)NC[C@H](O)c2ccccc2)c2nc3ccccc3[nH]2)cc1 | recombinant human ALX receptor (Homo sapiens) | 37 |
| O=C(N[C@H](Cc1ccc(CF)cc1)c1nc2ccccc2[nH]1)N[C@H]1CC[C@H](O)CC1 | recombinant human ALX receptor (Homo sapiens) | 10 |
| COC(=O)C1CCCC(NC(=O)N[C@H](Cc2ccc(OC)cc2)c2nc3ccccc3[nH]2)C1 (stereo partly shown) | recombinant human ALX receptor (Homo sapiens) | 11 |
| COc1cc(F)c(CC(NC(=O)N[C@H]2CC[C@H](O)CC2)c2nc3ccccc3[nH]2)cc1F (single isomer, unassigned; ent-1) [Example 356] | recombinant human ALX receptor (Homo sapiens) | 5.5 |
